# TARGET UNDER TEST: Sphingosine 1-phosphate receptor 2 (Homo sapiens)
# TEST METHOD NOTES: human S1P2 receptor antagonists, primary screen, cell-based (AID 736);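 note: CRE beta-lactamase reporter cells expressing human S1P2 stimulated with S1P; 0% = agonist at EC80 alone and 100% = agonist plus reference antagonist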
# EXPERIMENTAL CONTEXT: cell-based S1P2 antagonist assay, at 5 µM, stronger effect = higher value
Screen size: about 97,000 compounds; about 210 (0.22%) were called active. For the sample, actives were picked, then their nearest neighbours and some compounds at random.
So I've got a bunch of compounds here, and I need their inhibition values.
Numbers only, in %.

# batch: return inhibition for each of the 3 compounds below
1. COc1ccc(N(CC(=O)N/N=C/c2cccc3c2OCCO3)S(=O)(=O)c2ccc(NC(C)=O)cc2)cc1
2. Cc1ccc(CN(N=Nc2nonc2N)c2nonc2N)c(C)c1
3. CC1CC(C)CN(CC(=O)N2c3ccccc3CCc3ccccc32)C1 (stereo unspecified)

## Result
[10.2, -6.92, 3.76]
